test system: Human LDL; assay: LDL pro-oxidative system measuring primary oxidation by-products; assay type: biochemical; settings: 100 μM; CuSO4 oxidative system, 24 hours
Lipid hydrogen-peroxide % protection for assorted molecules
Please give a number only; it is taken to be in %.

MOLECULE	RESULT_UNITS	Lipid hydrogen-peroxide % protection
COC1=C(OC)C(=O)C(C/C=C(\C)CC/C=C(\C)CC/C=C(\C)CC/C=C(\C)CC/C=C(\C)CC/C=C(\C)CC/C=C(\C)CC/C=C(\C)CC/C=C(\C)CCC=C(C)C)=C(C)C1=O	%	14
c1coc(CNc2ncnc3[nH]cnc23)c1	%	1
COc1cc(/C=C/C(=O)O)ccc1O	%	94

Entry O=C1O[C@H]([C@@H](O)CO)C(O)=C1O ; Lipid hydrogen-peroxide % protection = 0

Entry O=C(O)CCCC[C@@H]1CCSS1 (racemic) ; Lipid hydrogen-peroxide % protection = 5
